Below is a list of entries, each paired with its recorded protein stability index value.
B1: SLC19A2 (parent)
chain: FASLRPSEPFLTPYLLGPDKNLTE

- Variants of: B1
- test.method.notes: protein stability index of a GFP-peptide fusion (GPS, HEK-293T) (PSI 1-6); higher = more stable;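 further: lentivirally expressed fusions sorted by FACS into six bins by GFP to DsRed ratio, PSI derived from sequencing read proportions per bin multiplied by bin number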
- condition.parameters: c terminus: a fixed tail appended
quantity.measured: protein stability index

variant.string	quantity.measured	value.observed
E24R	protein stability index	2.39
P13C	protein stability index	1.84
S7H	protein stability index	2.03
D19Y	protein stability index	2.89
D19L	protein stability index	1.58
T12E	protein stability index	3.47
L15Y	protein stability index	1.78
P9E	protein stability index	1.82
P18D	protein stability index	2
L16F	protein stability index	2.04
F1C	protein stability index	2.8
S7L	protein stability index	1.72
D19V	protein stability index	2.16
T12I	protein stability index	2
F1M	protein stability index	3.65
Y14H	protein stability index	2.57
L11A	protein stability index	2.42
E24T	protein stability index	1.8
Y14K	protein stability index	2.42
Y14F	protein stability index	2.38
E8P	protein stability index	2.12
A2L	protein stability index	2.04
Y14C	protein stability index	2.27
A2K	protein stability index	2.84
L4H	protein stability index	1.69
T23L	protein stability index	1.64
S3N	protein stability index	2.78
S3P	protein stability index	2.43
P6Y	protein stability index	1.83
F10S	protein stability index	2.16
R5V	protein stability index	2.6
K20G	protein stability index	2.04
P18C	protein stability index	1.98
L4C	protein stability index	1.61
E8V	protein stability index	2.14
A2N	protein stability index	3.64
P18Y	protein stability index	1.61
R5E	protein stability index	2.58
P9A	protein stability index	2.27
T23Q	protein stability index	3.16
K20L	protein stability index	2.1
F10I	protein stability index	2.23
L4T	protein stability index	2.23
L16D	protein stability index	2.65
T12Y	protein stability index	2.24
T12P	protein stability index	1.89
L22A	protein stability index	2.1
L4N	protein stability index	1.74
L22V	protein stability index	1.52
F1R	protein stability index	3.75
N21C	protein stability index	1.33
G17I	protein stability index	4.07
T23P	protein stability index	2.31
S7M	protein stability index	1.24
L15P	protein stability index	1.97
G17A	protein stability index	1.81
L16T	protein stability index	1.8
E24L	protein stability index	1.27
S3V	protein stability index	2.65
K20N	protein stability index	2.13
T23S	protein stability index	1.7
L15Q	protein stability index	1.76
N21R	protein stability index	1.95
N21A	protein stability index	1.51
R5T	protein stability index	1.98
E8D	protein stability index	1.63
P9C	protein stability index	2.26
D19N	protein stability index	1.46
L11I	protein stability index	1.58
P6D	protein stability index	2.17
P13F	protein stability index	2.1
G17E	protein stability index	1.86
G17Q	protein stability index	2.23
P18M	protein stability index	2.06
L11H	protein stability index	2.03
Y14M	protein stability index	2.6
F1A	protein stability index	4.25
P9F	protein stability index	3.54
S3G	protein stability index	1.65
F10K	protein stability index	2.72
N21S	protein stability index	1.47
P18Q	protein stability index	2
F1G	protein stability index	4.22
S7T	protein stability index	1.75
E24P	protein stability index	2.41
L15K	protein stability index	1.84
E8M	protein stability index	1.88
P6T	protein stability index	2.7
G17S	protein stability index	2.41
F1I	protein stability index	3.47
S3F	protein stability index	1.93
